test system: HEK-293T; assay: Incucyte cell viability with HEK293T; assay type: toxicity, cell-based; conditions: human, 18 h, 10 µM, compound concentration 10 uM, replicate number 1; also: unitless GR value; below 1 slowed growth and below 0 cell loss
property: Growth Rate

[
  {
    "compound": "COc1ccc(S(=O)(=O)N2CCOCC2)cc1Nc1ccc2c(n1)N(C1CCN(C)CC1)[C@H](C)C(=O)N2C",
    "experimentalValue": 0.97
  },
  {
    "compound": "CN1CCN(c2ccc(/C=C(\\C#N)c3ccccc3Br)cc2)CC1.Cl.Cl",
    "experimentalValue": 0.38
  },
  {
    "compound": "CC1(C)C(=O)N([C@H]2CCc3c(O)cccc32)c2nc(Nc3cccc(CN4CCCC4)c3)ncc21",
    "experimentalValue": -0.36
  },
  {
    "compound": "N=C(N)Nc1cc(C2CCNCC2)cc(C(F)(F)F)c1.O=C(O)C(F)(F)F.O=C(O)C(F)(F)F",
    "experimentalValue": 0.98
  },
  {
    "compound": "O=C(O)CCCCN(CCc1ccccc1OCc1ccc(CCc2ccccc2)cc1)Cc1ccc(C(=O)O)cc1",
    "experimentalValue": 0.87
  },
  {
    "compound": "O=C1Nc2nc(-c3c(O)cccc3OCC3CC3)cc([C@@H]3CCCNC3)c2CO1",
    "experimentalValue": 0.78
  },
  {
    "compound": "COc1cccc(CNc2ccc(S(=O)(=O)Nc3nc4ccccc4s3)cc2)c1O",
    "experimentalValue": 0.96
  },
  {
    "compound": "C#Cc1cnc2[nH]cc(-c3cccc4c3CCN4C(=O)[C@@H]3CCCN3C#N)c2c1",
    "experimentalValue": -0.46
  },
  {
    "compound": "N#Cc1ccnc(Nc2cc(C3CCN(C4COC4)CC3)cc(N3CCC(F)(F)C3)n2)c1",
    "experimentalValue": 0.46
  },
  {
    "compound": "CNC(=O)COc1cc2cc(Nc3nc(N4CCC(C(=O)N(C)C)CC4)ncc3Cl)cc(OC)c2n(C)c1=O",
    "experimentalValue": 0.57
  },
  {
    "compound": "OC(CN1CCC(Cc2ccc(F)cc2)CC1)c1ccc(Cl)cc1 (configuration not stated)",
    "experimentalValue": 0.88
  },
  {
    "compound": "COc1ccccc1-c1cc(Nc2cccc(CS(N)(=O)=O)c2)ncn1",
    "experimentalValue": 0.16
  },
  {
    "compound": "CC(=O)O[C@H]1C(=O)[C@@]2(C)[C@H]([C@H](OC(=O)c3ccccc3)[C@]3(O)C[C@H](OC(=O)[C@H](O)[C@@H](NC(=O)c4ccccc4)c4ccccc4)C(C)=C1C3(C)C)[C@]1(OC(C)=O)CO[C@@H]1C[C@@H]2O",
    "experimentalValue": -0.08
  },
  {
    "compound": "Cc1ccc(NC(=O)c2ccc(CN3CC[C@H](N(C)C)C3)c(C(F)(F)F)c2)cc1Nc1nccc(-c2cncnc2)n1",
    "experimentalValue": 0.96
  },
  {
    "compound": "CCCCCNC(=O)N1CCC(CN(Cc2ccc(Cl)cc2)Cc2ccc([N+](=O)[O-])s2)C1 (configuration not stated)",
    "experimentalValue": 0.51
  },
  {
    "compound": "CCn1c(-c2ccncc2)cc2c1CCNC2=O",
    "experimentalValue": -0.57
  },
  {
    "compound": "CN(CC(=O)Nc1ccc(F)c(F)c1F)C(=O)c1ccc2c(c1)OCCO2",
    "experimentalValue": 0.93
  }
]

Source listed as ChEMBL document CHEMBL5303304.
